Target: BCRP (ABCG2) (Homo sapiens, UniProt Q9UNQ0)
Sequence (Q9UNQ0 whole entry): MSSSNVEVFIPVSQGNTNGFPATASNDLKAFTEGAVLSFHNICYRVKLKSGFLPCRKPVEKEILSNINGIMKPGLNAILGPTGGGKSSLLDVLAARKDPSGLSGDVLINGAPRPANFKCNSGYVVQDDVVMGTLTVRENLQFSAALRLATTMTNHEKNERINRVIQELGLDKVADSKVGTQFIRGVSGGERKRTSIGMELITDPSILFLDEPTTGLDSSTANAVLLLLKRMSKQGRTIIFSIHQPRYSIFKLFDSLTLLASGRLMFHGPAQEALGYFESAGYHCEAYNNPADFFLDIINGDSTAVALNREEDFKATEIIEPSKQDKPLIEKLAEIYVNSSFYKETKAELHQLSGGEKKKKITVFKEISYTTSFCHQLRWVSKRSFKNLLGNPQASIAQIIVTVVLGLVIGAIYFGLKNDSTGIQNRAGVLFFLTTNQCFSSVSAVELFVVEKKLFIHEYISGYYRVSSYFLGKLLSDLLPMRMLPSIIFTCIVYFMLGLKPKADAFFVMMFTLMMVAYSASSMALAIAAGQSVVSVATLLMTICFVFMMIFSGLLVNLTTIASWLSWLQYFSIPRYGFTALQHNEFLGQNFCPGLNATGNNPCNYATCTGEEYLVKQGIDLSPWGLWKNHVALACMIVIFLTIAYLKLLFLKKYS
Test: Inhibition of BCRP expressed in human MCF7 MX cells at 31.6 uM by Hoechst 33342 staining relative to 10 uM XR9577
Assay type: cell-based
Details: MCF7 MX cells expressing BCRP, probe Hoechst 33342
PROPERTY_NAME: inhibition at 31.6 µM (%)

Cc1sc(NC(=S)N(C)C2CCCCC2)c(C(=O)O)c1C
25
CCN(CC)C(=S)Nc1sc2c(c1C(=O)O)CCCC2
25
CCN(CC)C(=O)Nc1sc2c(c1C(=O)O)CCC2
25
CCN(CC)C(=S)Nc1sc2c(c1C(=O)O)CCC2
25
CCN(CC)C(=O)Nc1sc2c(c1C(=O)O)CCCC2
25
CCN(CC)C(=S)Nc1ccsc1C(=O)O
25
CN(C(=S)Nc1sc2ccccc2c1C(=O)O)C1CCCCC1
25
CCN(CC)C(=S)Nc1sc2c(c1C(=O)O)CCCCC2
25
CCN(CC)C(=S)Nc1sccc1C(=O)O
25
CN(C(=O)Nc1ccccc1C(=O)O)C1CCCCC1
25

* * *

Molecular target: Multidrug resistance-associated protein 1 (Homo sapiens, UniProt P33527)
Sequence (P33527 whole entry): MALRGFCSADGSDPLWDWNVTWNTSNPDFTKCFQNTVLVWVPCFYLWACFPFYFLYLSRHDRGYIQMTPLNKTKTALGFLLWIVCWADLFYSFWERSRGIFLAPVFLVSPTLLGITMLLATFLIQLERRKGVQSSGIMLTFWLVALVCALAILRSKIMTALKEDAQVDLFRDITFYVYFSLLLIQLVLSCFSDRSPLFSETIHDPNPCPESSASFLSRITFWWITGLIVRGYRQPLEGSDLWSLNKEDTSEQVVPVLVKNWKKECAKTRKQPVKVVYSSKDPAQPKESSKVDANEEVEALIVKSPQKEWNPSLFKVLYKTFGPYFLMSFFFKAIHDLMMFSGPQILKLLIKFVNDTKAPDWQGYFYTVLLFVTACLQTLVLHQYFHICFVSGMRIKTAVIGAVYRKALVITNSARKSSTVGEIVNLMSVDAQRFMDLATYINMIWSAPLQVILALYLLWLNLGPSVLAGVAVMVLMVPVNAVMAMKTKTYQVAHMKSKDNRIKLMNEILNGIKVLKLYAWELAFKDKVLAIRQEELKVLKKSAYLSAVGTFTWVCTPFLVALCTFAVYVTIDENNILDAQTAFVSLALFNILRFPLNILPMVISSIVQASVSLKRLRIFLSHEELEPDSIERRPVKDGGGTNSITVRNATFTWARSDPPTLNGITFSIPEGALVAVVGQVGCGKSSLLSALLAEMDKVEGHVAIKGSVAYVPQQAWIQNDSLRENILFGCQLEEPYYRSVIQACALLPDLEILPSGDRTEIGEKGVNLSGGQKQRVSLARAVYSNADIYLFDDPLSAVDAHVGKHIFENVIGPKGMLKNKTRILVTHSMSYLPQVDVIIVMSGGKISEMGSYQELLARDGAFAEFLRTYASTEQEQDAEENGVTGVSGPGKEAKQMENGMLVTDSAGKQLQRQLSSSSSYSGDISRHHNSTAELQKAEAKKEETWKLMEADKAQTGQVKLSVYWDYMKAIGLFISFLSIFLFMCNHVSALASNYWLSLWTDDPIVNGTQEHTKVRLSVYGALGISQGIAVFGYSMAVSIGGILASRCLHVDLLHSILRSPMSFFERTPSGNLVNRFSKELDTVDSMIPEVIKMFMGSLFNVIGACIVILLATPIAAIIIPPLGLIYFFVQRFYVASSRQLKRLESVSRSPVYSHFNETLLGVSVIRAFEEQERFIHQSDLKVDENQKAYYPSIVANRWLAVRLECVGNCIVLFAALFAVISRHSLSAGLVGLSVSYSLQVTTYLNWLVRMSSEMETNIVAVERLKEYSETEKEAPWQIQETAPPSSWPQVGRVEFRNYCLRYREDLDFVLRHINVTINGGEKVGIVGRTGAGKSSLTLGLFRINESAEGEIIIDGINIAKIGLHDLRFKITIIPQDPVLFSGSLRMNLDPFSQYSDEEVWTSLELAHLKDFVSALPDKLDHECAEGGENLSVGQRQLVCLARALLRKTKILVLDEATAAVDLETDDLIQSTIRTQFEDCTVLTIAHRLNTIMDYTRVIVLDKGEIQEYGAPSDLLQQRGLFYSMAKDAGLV
Experiment: Inhibition of MRP1 expressed in multidrug resistant human 2008 cells assessed as calcein AM accumulation by fluorescence assay in presence of p-gp and BCRP inhibitor XR9577
Format: cell-based
pIC50: −log10 of the molar value.
PROPERTY_NAME: pIC50

Sample records with pIC50:
CN(C(=S)Nc1sccc1C(=O)O)C1CCCCC1
5.35
CN(CCc1ccccc1)C(=S)Nc1ccccc1C(=O)O
4.62
O=C(O)c1ccccc1NC(=S)N1CCNCC1
4.68

1. CCN(CC)C(=S)Nc1sc2c(c1C(=O)O)C(C)CCC2 (racemic)
2. Cc1ccc(NC(=O)N(C)C2CCCCC2)c(C(=O)O)c1
Request: Thinking about recorded pIC50 values, which is higher, 1 or 2 ? Pick one; state its label.
Response: 1
(1: 5.39, 2: 4.64)

* * *

Molecular target: Multidrug resistance-associated protein 1 (Homo sapiens)
Test: Inhibition of MRP1 expressed in multidrug resistant human 2008 cells assessed as calcein AM accumulation by fluorescence assay in presence of p-gp and BCRP inhibitor XR9577
Format: cell-based
pIC50: −log10 of the molar value.
PROPERTY_NAME: pIC50

Sample records with pIC50:
O=C(O)c1ccccc1NC(=S)N1CCCC1
4.74
CCN(CC)C(=S)Nc1scc(C(C)C)c1C(=O)O
4.84
CCN(CC)C(=S)Nc1sc2c(c1C(=O)O)CCCC2
5.57
CN(C(=S)Nc1ccccc1C(=O)O)c1ccccc1
3.70
CCN(CC)C(=O)Nc1ccccc1C(=O)O
4.58

a. CCN(CC)C(=S)Nc1sc2ccccc2c1C(=O)O
b. CCN(CC)C(=S)Nc1ccsc1C(=O)O
Request: Select one. Lower pIC50: a or b Pick one; state its label.
Response: b

I. CN(C(=S)Nc1sc2ccccc2c1C(=O)O)C1CCCCC1
II. CCN(CC)C(=S)Nc1sc2c(c1C(=O)O)CCCCC2
Request: Thinking about recorded pIC50 values, which is higher, I or II ? Pick one; state its label.
Response: I
(I: 5.91, II: 5.22)

* * *

Molecular target: Multidrug resistance-associated protein 1 (Homo sapiens)
Test: Inhibition of MRP1 expressed in multidrug resistant human 2008 cells assessed as calcein AM accumulation by fluorescence assay in presence of p-gp and BCRP inhibitor XR9577
Assay type: cell-based
PROPERTY_NAME: IC50 (µM)

P. O=C(O)c1ccccc1NC(=O)N1CCCC1
Q. CCN(CC)C(=S)Nc1sc2c(c1C(=O)O)CCC2
Request: Select one. Lower IC50: P or Q Pick one; state its label.
Response: Q

A. Cc1sc(NC(=S)N(C)C2CCCCC2)c(C(=O)O)c1C
B. Cc1cc(NC(=O)N2CCOCC2)c(C(=O)O)cc1C
C. CCN(CC)C(=S)Nc1ccccc1C(=O)O
D. CCN(CC)C(=S)Nc1sc(-c2ccccc2)cc1C(=O)O
Request: Ascending sort, IC50. Use the labels to give the requested order.
Response: A, D, C, B

1. CCN(CC)C(=S)Nc1sccc1C(=O)O
2. CN(Cc1ccccc1)C(=S)Nc1ccccc1C(=O)O
Request: Select one. Lower IC50: 1 or 2 Pick one; state its label.
Response: 1

P. CCN(CC)C(=S)Nc1sc(C)c(C)c1C(=O)O
Q. CN(Cc1ccccc1)C(=O)Nc1ccccc1C(=O)O
Request: Thinking about recorded IC50 values, which is higher, P or Q ? Pick one; state its label.
Response: Q
(Q: 42.6 µM, P: 20.4 µM)
